method-summary: Brain-to-plasma ratio (B/P) after administration
Type: in vivo, Sprague-Dawley rats
measurement-context: Sprague-Dawley, rat; Table 2; brain-to-plasma ratio at 1 h
metric: Kp at 1 h

# molecule, measurement
rows = [
    ("COCCOc1cnc(N2CCN(CCN(C)c3cc4nc(-c5ncco5)nn4c(N)n3)CC2)c(F)c1 [Compound 4]", 0.04),
    ("COCCOc1cnc(N2CCN(CCN(C)c3cc4nc(-c5ncco5)nn4c(N)n3)CC2)c(C(F)(F)F)c1 [Compound 19]", 0.01),
    ("COCCOc1ccc(N2CCN(CCN(C)c3cc4nc(-c5ccco5)nn4c(N)n3)CC2)cc1 [Reference compound, reference compound]", 0.17),
    ("COCCOc1cnc(N2CCN(CCN(C)c3cc4nc(-c5ncco5)nn4c(N)n3)CC2)c(Cl)c1 [Compound 14]", 0.025),
]
